- subject of test: Epidermal growth factor receptor (Homo sapiens, UniProt P00533)
- Sequence (P00533 whole entry, the tested form may be a part): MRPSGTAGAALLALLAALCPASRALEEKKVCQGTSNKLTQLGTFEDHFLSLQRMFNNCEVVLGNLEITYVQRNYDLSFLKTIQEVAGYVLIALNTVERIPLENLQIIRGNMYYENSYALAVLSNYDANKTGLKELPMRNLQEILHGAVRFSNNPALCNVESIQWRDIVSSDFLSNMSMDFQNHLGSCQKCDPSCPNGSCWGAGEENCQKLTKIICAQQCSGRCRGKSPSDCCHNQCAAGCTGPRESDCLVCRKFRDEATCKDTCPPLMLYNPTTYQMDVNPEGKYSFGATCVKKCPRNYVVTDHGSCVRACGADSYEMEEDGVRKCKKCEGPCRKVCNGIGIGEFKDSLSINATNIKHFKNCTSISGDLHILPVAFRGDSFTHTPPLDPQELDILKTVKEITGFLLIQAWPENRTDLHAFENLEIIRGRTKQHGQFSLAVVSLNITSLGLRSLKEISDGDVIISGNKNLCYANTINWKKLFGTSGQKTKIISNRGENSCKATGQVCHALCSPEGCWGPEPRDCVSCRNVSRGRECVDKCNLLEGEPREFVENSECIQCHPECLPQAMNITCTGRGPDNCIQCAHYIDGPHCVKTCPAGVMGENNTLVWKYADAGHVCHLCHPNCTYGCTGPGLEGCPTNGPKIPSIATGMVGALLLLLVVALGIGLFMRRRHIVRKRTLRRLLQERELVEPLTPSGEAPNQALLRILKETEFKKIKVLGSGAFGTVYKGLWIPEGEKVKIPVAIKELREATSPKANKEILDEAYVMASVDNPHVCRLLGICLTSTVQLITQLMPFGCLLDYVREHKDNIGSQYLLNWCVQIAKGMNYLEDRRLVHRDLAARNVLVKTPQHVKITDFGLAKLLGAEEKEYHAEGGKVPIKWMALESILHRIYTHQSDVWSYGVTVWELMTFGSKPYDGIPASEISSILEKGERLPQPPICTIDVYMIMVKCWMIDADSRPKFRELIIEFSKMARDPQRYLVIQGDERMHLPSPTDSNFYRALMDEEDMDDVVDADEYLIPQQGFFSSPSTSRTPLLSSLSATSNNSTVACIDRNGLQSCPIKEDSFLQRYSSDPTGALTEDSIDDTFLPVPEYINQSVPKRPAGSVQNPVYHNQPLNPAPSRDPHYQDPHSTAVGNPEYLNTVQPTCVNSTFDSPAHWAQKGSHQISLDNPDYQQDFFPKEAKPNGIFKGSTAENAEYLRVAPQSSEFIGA
- assay info: Inhibition of His-tagged EGFR cytoplasmic domain (645-1186 aa) (unknown origin) assessed as inhibition of autophosphorylation by TR-fluorometry
- condition notes: read-out: pIC50 (converted)
readout label: IC50 (µM)
Please reply with the bare figure in µM and do not write the unit itself.

Memo: CC(=O)N1N=C(c2ccc(Br)cc2)CC1c1ccc(C(=O)OC(C)Cn2c([N+](=O)[O-])cnc2C)cc1 (stereo not drawn) , reported IC50: 5.97

Memo: COc1ccc(C2=NN(C(C)=O)C(c3ccc(C(=O)OCCn4c([N+](=O)[O-])cnc4C)cc3)C2)cc1 (stereo not drawn) , reported IC50: 8.55

Memo: CC(=O)N1N=C(c2ccc([N+](=O)[O-])cc2)CC1c1ccc(C(=O)OCCn2c([N+](=O)[O-])cnc2C)cc1 (stereo not drawn) , reported IC50: 0.601

Memo: CCOc1ccc(C2=NN(C(C)=O)C(c3ccc(C(=O)OC(C)Cn4c([N+](=O)[O-])cnc4C)cc3)C2)cc1 (stereo not drawn) , reported IC50: 27

Memo: CC(=O)N1N=C(c2ccc(Br)cc2)CC1c1ccc(C(=O)OCCn2c([N+](=O)[O-])cnc2C)cc1 (stereo not drawn) , reported IC50: 4.13

Memo: CC(=O)N1N=C(c2ccc(I)cc2)CC1c1ccc(C(=O)OCCn2c([N+](=O)[O-])cnc2C)cc1 (stereo not drawn) , reported IC50: 1.26

Memo: CC(=O)N1N=C(c2ccc(C)cc2)CC1c1ccc(C(=O)OC(C)Cn2c([N+](=O)[O-])cnc2C)cc1 (stereo not drawn) , reported IC50: 25.6

Memo: CC(=O)N1N=C(c2ccc(C(F)(F)F)cc2)CC1c1ccc(C(=O)OC(C)Cn2c([N+](=O)[O-])cnc2C)cc1 (stereo not drawn) , reported IC50: 6.68

====

- subject of test: Epidermal growth factor receptor (Homo sapiens, UniProt P00533)
- assay info: Inhibition of His-tagged EGFR cytoplasmic domain (645-1186 aa) (unknown origin) assessed as inhibition of autophosphorylation by TR-fluorometry
- condition notes: read-out: IC50
readout label: IC50 (µM)
Please reply with the bare figure in µM and do not write the unit itself.

Memo: CC(=O)N1N=C(c2ccccc2)CC1c1ccc(C(=O)OC(C)Cn2c([N+](=O)[O-])cnc2C)cc1 (centres undefined) , reported IC50: 12.2

Memo: CCOc1ccc(C2=NN(C(C)=O)C(c3ccc(C(=O)OC(C)Cn4c([N+](=O)[O-])cnc4C)cc3)C2)cc1 (centres undefined) , reported IC50: 26.9

Memo: CCOc1ccc(C2=NN(C(C)=O)C(c3ccc(C(=O)OCCn4c([N+](=O)[O-])cnc4C)cc3)C2)cc1 (centres undefined) , reported IC50: 15.2

Memo: CC(=O)N1N=C(c2ccc(C)cc2)CC1c1ccc(C(=O)OC(C)Cn2c([N+](=O)[O-])cnc2C)cc1 (centres undefined) , reported IC50: 25.6

====

- subject of test: Epidermal growth factor receptor (Homo sapiens, UniProt P00533)
- assay info: Inhibition of His-tagged EGFR cytoplasmic domain (645-1186 aa) (unknown origin) assessed as inhibition of autophosphorylation by TR-fluorometry
- condition notes: read-out: pIC50 (converted)
readout label: IC50 (µM)
Please reply with the bare figure in µM and do not write the unit itself.

Memo: CC(=O)N1N=C(c2ccc(Cl)cc2)CC1c1ccc(C(=O)OCCn2c([N+](=O)[O-])cnc2C)cc1 (stereo not given) , reported IC50: 7.38

Memo: CC(=O)N1N=C(c2ccccc2)CC1c1ccc(C(=O)OC(C)Cn2c([N+](=O)[O-])cnc2C)cc1 (stereo not given) , reported IC50: 12.2

Memo: CC(=O)N1N=C(c2ccc([N+](=O)[O-])cc2)CC1c1ccc(C(=O)OC(C)Cn2c([N+](=O)[O-])cnc2C)cc1 (stereo not given) , reported IC50: 1.45

Memo: CC(=O)N1N=C(c2ccc(F)cc2)CC1c1ccc(C(=O)OC(C)Cn2c([N+](=O)[O-])cnc2C)cc1 (stereo not given) , reported IC50: 6.59

Memo: CC(=O)N1N=C(c2ccc(C)cc2)CC1c1ccc(C(=O)OCCn2c([N+](=O)[O-])cnc2C)cc1 (stereo not given) , reported IC50: 10.9

====

Please go through the items and note down their pIC50.
- Tested on: HepG2
- assay info: Antiproliferative activity against human HepG2 cells after 12 hrs by MTT assay
- Type: functional, cell-based
- condition notes: HepG2, 12 h
// returns pIC50 (minus log10 of molar concentration), number only

Memo: CCOc1ccc(C2=NN(C(C)=O)C(c3ccc(C(=O)OCCn4c([N+](=O)[O-])cnc4C)cc3)C2)cc1 (stereo not given) , reported pIC50: 4.71

Memo: CCOc1ccc(C2=NN(C(C)=O)C(c3ccc(C(=O)OC(C)Cn4c([N+](=O)[O-])cnc4C)cc3)C2)cc1 (stereo not given) , reported pIC50: 4.41

Memo: CC(=O)N1N=C(c2ccc(Br)cc2)CC1c1ccc(C(=O)OC(C)Cn2c([N+](=O)[O-])cnc2C)cc1 (stereo not given) , reported pIC50: 5.04

Memo: CC(=O)N1N=C(c2ccc(C(F)(F)F)cc2)CC1c1ccc(C(=O)OCCn2c([N+](=O)[O-])cnc2C)cc1 (stereo not given) , reported pIC50: 6.48

Memo: CC(=O)N1N=C(c2ccc(F)cc2)CC1c1ccc(C(=O)OC(C)Cn2c([N+](=O)[O-])cnc2C)cc1 (stereo not given) , reported pIC50: 5.05
